Measured koff accompanies every entry in the list below.
Target: T1, recombinant canine β NGF (canine, UniProt Q29074 110-229 (pig entry))
T1 construct: also called canine NGF
T1 chain: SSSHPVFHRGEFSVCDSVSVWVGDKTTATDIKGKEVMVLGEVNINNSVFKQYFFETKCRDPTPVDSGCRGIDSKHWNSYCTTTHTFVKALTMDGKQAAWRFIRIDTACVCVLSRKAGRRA
Assay: SPR (Biacore), mAb captured on goat anti-mouse IgG Fc, canine NGF injected; Expt 2
State the answer as a number, implicitly in s⁻¹.

Known koff results, listed for orientation:
binder	koff [s⁻¹]
PR-1254972 (antibody, mouse IgG2b, V domains shown, also called 20B10; ML129-20B10.3F4) VH: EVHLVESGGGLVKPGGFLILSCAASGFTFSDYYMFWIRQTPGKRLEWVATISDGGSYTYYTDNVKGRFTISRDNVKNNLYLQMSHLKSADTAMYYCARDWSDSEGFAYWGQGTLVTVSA VL: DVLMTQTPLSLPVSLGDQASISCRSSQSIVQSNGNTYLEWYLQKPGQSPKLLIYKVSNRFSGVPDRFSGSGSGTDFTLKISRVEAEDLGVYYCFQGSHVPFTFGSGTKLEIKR	0.00321
PR-1254980 (antibody, mouse IgG1, V domains shown, also called 23F1; ML129-23F1.4G3) VH: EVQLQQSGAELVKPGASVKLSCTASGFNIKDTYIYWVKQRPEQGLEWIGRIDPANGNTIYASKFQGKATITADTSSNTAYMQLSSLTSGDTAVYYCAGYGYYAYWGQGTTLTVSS VL: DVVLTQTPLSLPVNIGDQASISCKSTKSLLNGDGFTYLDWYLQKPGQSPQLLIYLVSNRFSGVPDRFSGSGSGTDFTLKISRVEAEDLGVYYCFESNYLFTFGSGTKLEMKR	0.000225
PR-1254973 (antibody, mouse IgG2b, V domains shown, also called 2B12; ML129-2B12.5G9) VH: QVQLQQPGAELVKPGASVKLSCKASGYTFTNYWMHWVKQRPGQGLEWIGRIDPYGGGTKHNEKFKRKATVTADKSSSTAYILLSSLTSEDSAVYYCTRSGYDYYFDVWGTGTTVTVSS VL: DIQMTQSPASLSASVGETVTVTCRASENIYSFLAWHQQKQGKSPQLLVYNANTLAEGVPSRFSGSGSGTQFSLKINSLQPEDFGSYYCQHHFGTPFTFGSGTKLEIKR	0.000138

Sample PR-1254977 (antibody, mouse IgG1, V domains shown, also called 21D4; ML129-21D4.4A11) VH: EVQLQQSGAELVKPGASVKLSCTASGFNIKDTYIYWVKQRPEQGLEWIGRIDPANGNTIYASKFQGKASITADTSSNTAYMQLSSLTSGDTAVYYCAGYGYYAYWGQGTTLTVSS VL: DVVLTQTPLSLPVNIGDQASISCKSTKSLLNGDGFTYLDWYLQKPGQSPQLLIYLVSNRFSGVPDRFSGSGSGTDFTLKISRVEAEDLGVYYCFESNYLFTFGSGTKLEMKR — what was its koff?
0.00016

Now the same for PR-1254981 (antibody, mouse IgG1, V domains shown, also called 14A9; ML130-14A9.5B12) VH: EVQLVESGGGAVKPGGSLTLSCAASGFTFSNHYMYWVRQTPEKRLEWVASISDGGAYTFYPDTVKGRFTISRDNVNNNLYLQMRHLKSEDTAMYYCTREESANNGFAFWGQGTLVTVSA VL: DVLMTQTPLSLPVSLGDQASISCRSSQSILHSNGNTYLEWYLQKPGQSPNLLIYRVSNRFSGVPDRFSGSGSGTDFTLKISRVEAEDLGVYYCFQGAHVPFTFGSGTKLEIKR
0.00014

// data source = patent US20180362629A1
